- System: enzyme producing tartaric acid ether compound
- assay-remarks: Substrate specificity of the present enzyme in the presence of (±)-trans-epoxysuccinic acid
- Assay type: biochemical, Aspergillus oryzae
- experimental-context: substrate in the presence of (±)-trans-epoxysuccinic acid; decrement of genistein as substrate expressed as 100

[
  {
    "molecule": "O=c1c(-c2ccc(O)cc2)coc2cc(O)cc(O)c12 [genistein]",
    "unit-tag": "%",
    "Relative activity (%)": 100
  },
  {
    "molecule": "O=C1COc2cc(O)ccc21 [6-hydroxy-2H-benzofuran-3-one]",
    "unit-tag": "%",
    "Relative activity (%)": 135
  },
  {
    "molecule": "O=C1C[C@@H](c2ccc(O)cc2)Oc2cc(O)cc(O)c21 [naringenin]",
    "unit-tag": "%",
    "Relative activity (%)": 194
  },
  {
    "molecule": "Cc1cc(=O)oc2cc(O)cc(O)c12 [5,7-dihydroxy-4-methylcoumarin]",
    "unit-tag": "%",
    "Relative activity (%)": 107
  },
  {
    "molecule": "O=c1oc2cc(O)ccc2c2oc3cc(O)ccc3c12 [courmestrol]",
    "unit-tag": "%",
    "Relative activity (%)": 58
  },
  {
    "molecule": "O=c1cc(CO)occ1O [kojic acid]",
    "unit-tag": "%",
    "Relative activity (%)": 4
  }
]
